- protocolNotes: human hepatoma cell viability loss – ATP luminescence, cytotoxicity control for P. falciparum antimalarial project, primary screen (AID 2303);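 also: 0% = DMSO wells and 100% = digitonin-killed cells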
- measurementConditions: HepG2 viability, 24-48 h, at 10 µM
Active and inactive are the calls of the source.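 The calls were made as follows: active = inhibition above 50%; inactive = the rest.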
The categories you may choose from are active, inactive

Example cases with answers are listed next.
- COc1ccc(CC(Cc2ccc(OC)cc2)NCC(O)c2cccc(Cl)c2)cc1 (stereo unspecified): inactive
- C=CCOc1ccc(-c2c(C)[nH]c(C)c(Br)c2=O)cc1: inactive

Enquiry: # lookup: test call for CCOc1ccc2nc(C)cc(NN=Cc3ccc(Cl)cc3)c2c1
Return: inactive

Enquiry: Next: Cc1cccc2[nH]c(-c3ccc(-c4ccc(NC(=O)Nc5ccsc5)cc4)s3)nc12
Return: active

Enquiry: Next: Cc1ccc(Oc2ccc(NC(=O)CNc3ccccc3N3CCCC3=O)cc2)cc1
Return: inactive

Enquiry: Next: O=C(Nc1ccc(Cl)c(Cl)c1)N1CCC(NCc2cccc([N+](=O)[O-])c2)CC1
Return: inactive

Enquiry: Next: CNc1ccc(CNCc2ccc(-c3ccc(-c4nc5ccc(C(F)(F)F)cc5[nH]4)cc3)cc2)cc1
Return: active

Enquiry: Next: COc1cccc(Nc2c(C(N)=O)cnc3ccc(-c4ccccc4)cc23)c1
Return: inactive

====

- system: Calcium-dependent protein kinase 1 (Plasmodium falciparum (isolate 3D7)) (UniProt P62344)
- Sequence (P62344 whole entry, looked up): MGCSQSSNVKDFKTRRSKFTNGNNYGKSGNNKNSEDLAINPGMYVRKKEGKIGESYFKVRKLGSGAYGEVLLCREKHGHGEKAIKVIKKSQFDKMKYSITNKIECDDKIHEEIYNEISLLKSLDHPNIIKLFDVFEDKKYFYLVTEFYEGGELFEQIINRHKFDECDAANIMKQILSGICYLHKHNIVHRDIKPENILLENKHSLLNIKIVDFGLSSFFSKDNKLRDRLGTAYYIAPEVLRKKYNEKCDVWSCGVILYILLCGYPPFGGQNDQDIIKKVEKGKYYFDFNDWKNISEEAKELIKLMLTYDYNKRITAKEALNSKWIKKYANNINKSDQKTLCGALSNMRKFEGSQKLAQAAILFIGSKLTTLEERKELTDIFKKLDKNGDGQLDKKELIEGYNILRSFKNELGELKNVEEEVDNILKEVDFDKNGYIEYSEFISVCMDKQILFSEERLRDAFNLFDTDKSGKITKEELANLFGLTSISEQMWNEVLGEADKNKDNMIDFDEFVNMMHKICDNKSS
- protocolNotes: PfCDPK1 kinase inhibitors, biochemical, TCAMS library (AID 1159585);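 also: inhibitors leave more ATP so luminescence rises with inhibition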
- measurementConditions: recombinant PfCDPK1, Kinase-Glo ATP depletion luminescence
Potency and affinity values are given separately. The source made the active and inactive calls. Cut-off not given; nearly all actives show IC50 up to about 0.98 µM.
quantityKind: outcome

The examples below pair each entry with its known result.
• O=C(Nc1ccc(OC2CCN(Cc3ccccc3)C2)c(Cl)c1)c1ccc(F)cc1 (stereo not given) = inactive
• Cc1cccc2[nH]c(-c3cccc(-c4ccc(CNCc5cccc(N)c5)cc4)c3)nc12 = inactive
• Cc1cc(NN=Cc2cccc(Cl)c2)c2ccc(F)cc2n1 = inactive
• O=C(CN(c1cccc(C(F)(F)F)c1)S(=O)(=O)c1ccc(Cl)cc1)NCCC(c1ccccc1)c1ccccc1 = inactive

Attention now shifts to the item below.
Enquiry: Please look up its outcome: CCN(CC)C(=NCCCCCCN=C(NC(N)=NCc1ccc(Cl)cc1Cl)N(CC)CC)NC(N)=NCc1ccc(Cl)cc1Cl
Return: inactive

====

- system: L-lactate dehydrogenase (Plasmodium falciparum (isolate CDC / Honduras)) (UniProt Q27743)
- Sequence (Q27743 whole entry, looked up): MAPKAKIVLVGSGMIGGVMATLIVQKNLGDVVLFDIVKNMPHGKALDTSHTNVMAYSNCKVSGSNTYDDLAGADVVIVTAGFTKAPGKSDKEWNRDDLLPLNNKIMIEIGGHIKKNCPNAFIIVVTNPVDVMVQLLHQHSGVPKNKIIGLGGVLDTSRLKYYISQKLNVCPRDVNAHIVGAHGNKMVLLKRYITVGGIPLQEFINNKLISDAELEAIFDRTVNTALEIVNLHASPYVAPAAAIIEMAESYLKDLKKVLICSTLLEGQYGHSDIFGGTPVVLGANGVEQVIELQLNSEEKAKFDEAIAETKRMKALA
- protocolNotes: PfLDH activity inhibition – cell lysate, 3D7 strain, counter-screen for P. falciparum growth inhibition project (AID 2304);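 also: 0% = vehicle and 100% = reference inhibitor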
- measurementConditions: P. falciparum 3D7 crude extract, LDH APAD/NBT absorbance; at 2 µM; stronger effect = higher value
Attribute: inhibition
Your answer is read as %, so omit the unit and give the number.

The examples below pair each entry with its known result.
- O=c1c2sc(-c3ccc(Cl)cc3)cc2ncn1Cc1ccc(OCCN2CCCC2)c2ccccc12: 1
- O=C(Cn1c(CCc2cccc(F)c2F)cc(=O)c2cccnc21)N(CCn1ccnc1)Cc1ccc(-c2ccc(C(F)(F)F)cc2)cc1: 0
- Cc1cc(N)c2cc(NC(=O)c3cccc4ccccc34)ccc2n1: 4
- CN1CCN(CCCN(Cc2cccc(-c3cccc(CNCCc4ccccc4)c3)c2)C(=O)Nc2ccccc2)CC1: 0
- O=S(=O)(c1ccc(Oc2ccccc2)cc1)N(CCC(O)(C(F)(F)F)C(F)(F)F)Cc1cccc(O)c1: 5
- CC(C)C[C@@H](/C=N/N1CCOC1=O)NC(=O)[C@H](CC(C)C)NC(=O)c1ccc(OCCN2CCOCC2)cc1: 6
- Cc1nc(-c2cccc(Nc3nccc(NCC(O)c4ccccc4C(F)(F)F)n3)c2)cs1 (stereo not drawn): 5

Attention now shifts to the item below.
Enquiry: Please look up its inhibition: CC(=O)N[C@H](C(=O)Nc1cccc(-c2ccc(-c3nc4c(C)cccc4[nH]3)s2)c1)C(C)C
Return: 2

====

- protocolNotes: antimalarial activity against Dd2 strain (AID 2302);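 also: 0% = DMSO untreated growth and 100% = chloroquine plus artemisinin killed control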
- measurementConditions: P. falciparum Dd2 in RBCs, LDH growth readout, 72 h; at 2 µM; stronger effect = higher value
quantityKind: growth inhibition (%)
Your answer is read as %, so omit the unit and give the number.

The examples below pair each entry with its known result.
• COc1ccc(CNCc2ccccc2)cc1-c1ccc(S(=O)(=O)NCCN2CCCC2)s1 = 62
• c1ccc(-c2nc(NC3CCCCC3)cc(C3CC3)n2)nc1 = 76
• CC(C)CN1CCCN(Cc2cccc(NC(=O)c3cc4ccccc4s3)c2)CC1 = 6
• O=C(Nc1cccc(-c2ccc(-c3nc4ccccc4[nH]3)cc2)c1)c1cccnc1 = 1
• CN1CCC[C@H]1COc1ccc(CN2CC[C@H](NC(=O)c3ccc(Cl)c(Cl)c3)C2)cc1Cl = 44
• CC(C)OC(=O)c1ccc(NC(=O)N[C@@H](Cc2ccc(O)cc2)C(=O)NC2C[C@H]3CC[C@@H](C2)N3Cc2ccccc2)cc1 (some centres undefined) = 19
• COc1cc(Cc2cnc(NCCN3CCNCC3)nc2N)ccc1OCc1ccc(C(F)(F)F)cc1 = 4
• Cc1noc(C)c1-c1cccc(C(=O)NC2CCN(CCNC(=O)C(c3ccccc3)c3ccccc3)CC2)c1 = 74

Enquiry: Please look up its growth inhibition: Cc1cc(NN=Cc2cccc(Cl)c2)c2cc(F)ccc2n1
Return: 100

====

Attribute: inhibition
- system: L-lactate dehydrogenase (Plasmodium falciparum (isolate CDC / Honduras)) (UniProt Q27743)
- protocolNotes: PfLDH activity inhibition – cell lysate, 3D7 strain, counter-screen for P. falciparum growth inhibition project (AID 2304);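 also: 0% = vehicle and 100% = reference inhibitor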
- measurementConditions: P. falciparum 3D7 crude extract, LDH APAD/NBT absorbance; at 2 µM; stronger effect = higher value
Your answer is read as %, so omit the unit and give the number.

The examples below pair each entry with its known result.
• CCCCCOc1ccc(C(O)C(CCC(CN2CCCCCC2)C(O)c2ccc(OCCCCC)cc2)CN2CCCCCC2)cc1 (centres undefined) = 0
• O=C(Nc1ccc(F)cc1)c1ccc(C(=O)NC2CCN(CC3CCCCC3)CC2)cc1 = -7
• O=C(Nc1ccc(OCc2ccccc2)cc1)c1nc2ccccc2nc1Cl = 3

Enquiry: Please look up its inhibition: COc1ccc2nccc([C@@H](O)CN3CCC(NCc4cc5ccc(C#N)cc5[nH]4)CC3)c2c1
Return: 0

Enquiry: Next: NC1CCN(Cc2ccc(-c3ccc(-c4nc5ccc(F)cc5[nH]4)cc3)cc2)C1 (centres undefined)
Return: -3

Enquiry: Next: COCc1nc(N)nc(N)c1-c1ccc(Cl)c(Cl)c1
Return: -1

Enquiry: Next: Cc1ncccc1-c1cccc2c(NC(=O)Nc3ccc4nccc(N5CCN(C)CC5)c4c3)cccc12
Return: -6

Enquiry: Next: COc1ccc(CN(C)CCCc2ccc(NC(=O)Cc3ccc4nc(-c5ccccc5)ccc4c3)cc2)cc1OC
Return: -3

Enquiry: Next: NC1CCN(Cc2cccc(-c3ccc(-c4nc5ccc(F)cc5[nH]4)cc3)c2)C1 (centres undefined)
Return: -1

====

- system: Calcium-dependent protein kinase 1 (Plasmodium falciparum (isolate 3D7)) (UniProt P62344)
- protocolNotes: PfCDPK1 kinase inhibitors, biochemical, TCAMS library (AID 1159585);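 also: inhibitors leave more ATP so luminescence rises with inhibition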
- measurementConditions: recombinant PfCDPK1, Kinase-Glo ATP depletion luminescence
Results with a measured potency or affinity are listed apart. Calls of active or inactive are those of the source. The limit is not given here; nearly all actives have IC50 up to about 0.98 µM.
quantityKind: outcome

The examples below pair each entry with its known result.
• CC(C)(C)c1ccc(-c2cc(C(=O)N[C@@H](CO)C(=O)O)on2)cc1 (tested in a mixture with another compound) = inactive
• CC(=O)Nc1ccc(OCCN(CC(C)C)c2ccc(C(F)(F)F)c(C#N)c2)c(Cl)c1 = inactive
• O=C(NCc1cccnc1)C(c1cc2ccccc2o1)N1CCN(C(c2ccccc2)c2ccccc2)CC1 (stereo not given) = inactive
• CCOc1cc(NCCCNc2ncc([N+](=O)[O-])cc2C)nc2ccccc12 = inactive

Attention now shifts to the item below.
Enquiry: Please look up its outcome: CCCC(C)c1cnc2nc(N)nc(N)c2c1C (stereo not given)
Return: inactive

====

- system: L-lactate dehydrogenase (Plasmodium falciparum (isolate CDC / Honduras))
- protocolNotes: PfLDH activity inhibition – cell lysate, 3D7 strain, counter-screen for P. falciparum growth inhibition project (AID 2304);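 also: 0% = vehicle and 100% = reference inhibitor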
- measurementConditions: P. falciparum 3D7 crude extract, LDH APAD/NBT absorbance; at 2 µM; stronger effect = higher value
Active and inactive are the calls of the source. How the calls were made is not given here.
Attribute: inhibition

The examples below pair each entry with its known result.
- O=C(NCCN1CCOCC1)c1ccc(N2CCC(Oc3ccc4ccccc4c3)CC2)nc1: -3% (inactive)
- O=C(Nc1cccc(C2=NCCCN2)c1)Nc1cccc(C2=NCCCN2)c1: -6% (inactive)
- O=[N+]([O-])c1ccc(C=NNc2nc3ccccc3[nH]2)cc1: -6% (inactive)

Attention now shifts to the item below.
Enquiry: Look up inhibition with L-lactate dehydrogenase (Plasmodium falciparum (isolate CDC / Honduras)) for this molecule: CN(C)c1ccc(NC2=NC(C)(C)N=C(N)N2)cc1
Return: -4% (inactive)
